Where do the numbers come from? From the supplement of paper PMC10065799.

Give measured phosphorylation enrichment for each item. Keep answers brief.
# target-system: FGFR3 (UniProt P22607)
# Sequence (P22607 whole entry, looked up): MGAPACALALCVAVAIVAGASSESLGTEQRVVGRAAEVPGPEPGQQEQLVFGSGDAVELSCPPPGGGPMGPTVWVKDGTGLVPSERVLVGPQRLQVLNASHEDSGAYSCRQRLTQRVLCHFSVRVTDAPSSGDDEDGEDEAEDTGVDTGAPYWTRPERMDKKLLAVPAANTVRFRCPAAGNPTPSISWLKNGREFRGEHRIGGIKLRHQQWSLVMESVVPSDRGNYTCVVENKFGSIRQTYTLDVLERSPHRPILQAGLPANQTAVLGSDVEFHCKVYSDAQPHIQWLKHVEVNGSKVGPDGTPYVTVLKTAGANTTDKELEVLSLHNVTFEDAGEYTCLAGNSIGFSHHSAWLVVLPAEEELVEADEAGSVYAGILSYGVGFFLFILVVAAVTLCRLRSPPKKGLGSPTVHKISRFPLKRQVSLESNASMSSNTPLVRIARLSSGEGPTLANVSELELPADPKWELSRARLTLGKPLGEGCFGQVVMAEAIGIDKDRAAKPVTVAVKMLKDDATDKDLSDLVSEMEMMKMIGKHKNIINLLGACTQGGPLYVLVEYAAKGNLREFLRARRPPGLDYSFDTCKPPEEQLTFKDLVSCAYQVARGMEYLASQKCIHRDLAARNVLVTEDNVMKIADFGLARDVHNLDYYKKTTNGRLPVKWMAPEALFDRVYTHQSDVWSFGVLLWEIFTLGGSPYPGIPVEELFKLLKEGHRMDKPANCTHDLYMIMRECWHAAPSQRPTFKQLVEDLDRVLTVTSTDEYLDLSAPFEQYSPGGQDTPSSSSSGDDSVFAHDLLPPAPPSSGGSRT
# measurement-notes: phosphorylation enrichment, bacterial display (enrichment ratio); higher = better substrate or ligand; peptides without Tyr show the background
Give the value as a plain number.

Provide only the value of recorded phosphorylation enrichment for PKEEPYKMQEK [SLC5A3_Y565_Q566K]
0.587

Provide only the value of recorded phosphorylation enrichment for RLLVFYPWTQR [HBB_Y36_V35F]
0.891

Provide only the value of recorded phosphorylation enrichment for GLVFLYVEKNQ [PRELP_Y156_M157V]
0.902

Provide only the value of recorded phosphorylation enrichment for KMKGEYFRFLA [YWHAG_Y130_D129E_YF]
2.58

Provide only the value of recorded phosphorylation enrichment for KYLENYYDLEK [MMP3_Y41_K45E]
6.66

Provide only the value of recorded phosphorylation enrichment for LLIMEYAKYGS [RET_Y806_V804M]
1.19

Provide only the value of recorded phosphorylation enrichment for TEQDPYNNIDR [MMUT_Y364_V368D]
0.641

Provide only the value of recorded phosphorylation enrichment for TKVVHYWKWIK [KLK2_Y249_R250W]
0.58

Provide only the value of recorded phosphorylation enrichment for CPPKVYELMIA [ABL2_Y515_R519I]
0.959

Provide only the value of recorded phosphorylation enrichment for KLSFSYGQALQ [ALDOB_Y302_R304Q]
0.72

Provide only the value of recorded phosphorylation enrichment for MVSLFYGTAIF [OR10C1_Y251_L255I]
0.819

Provide only the value of recorded phosphorylation enrichment for MSLPGYKLVTG [GJA1_Y286_P283L]
0.456

Provide only the value of recorded phosphorylation enrichment for FMCKVYSDRQP [FGFR1_Y280_P283R]
0.808

Provide only the value of recorded phosphorylation enrichment for ALADKYHGGGG [HBB_Y146_H144D]
0.402

Provide only the value of recorded phosphorylation enrichment for LNCDRYSAGLL [PDE6A_Y275_V277A]
0.612

Provide only the value of recorded phosphorylation enrichment for ETEMLYGSARR [PRC1_Y464_P468R]
0.601

Provide only the value of recorded phosphorylation enrichment for RQNRFYDAKVR [FKBP6_Y188]
0.496

Provide only the value of recorded phosphorylation enrichment for YKIYLYTLNDN [FN1_Y1975]
1.02

Provide only the value of recorded phosphorylation enrichment for GLIPAYHRVIM [NMNAT1_Y64]
0.612

Provide only the value of recorded phosphorylation enrichment for VVQGIYGYHHY [UFSP2_Y285]
0.575

Provide only the value of recorded phosphorylation enrichment for IVRSLYEDPED [VHL_Y185_L188P]
0.707

Provide only the value of recorded phosphorylation enrichment for MTFMFYRENLR [NLRP14_Y443_V441M_YF]
0.784

Provide only the value of recorded phosphorylation enrichment for YLRTGYSVPYG [TGM1_Y370]
0.532

----------
# target-system: Grb2 SH2 (UniProt P62993)
# Sequence (P62993 whole entry, looked up): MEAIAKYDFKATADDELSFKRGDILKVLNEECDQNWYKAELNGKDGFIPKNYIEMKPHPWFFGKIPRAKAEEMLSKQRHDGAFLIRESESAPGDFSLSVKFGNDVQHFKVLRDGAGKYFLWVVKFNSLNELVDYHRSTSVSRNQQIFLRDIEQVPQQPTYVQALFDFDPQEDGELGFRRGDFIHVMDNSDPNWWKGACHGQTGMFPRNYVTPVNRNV
# measurement-notes: SH2 binding enrichment of the phosphorylated peptide, bacterial display (enrichment ratio); higher = better substrate or ligand; peptides without Tyr show the background
Give measured SH2 binding enrichment for each item. Keep answers brief.
Give the value as a plain number.

Provide only the value of recorded SH2 binding enrichment for FKPENYRRLDI [VHL_Y175_V170F]
0.892

Provide only the value of recorded SH2 binding enrichment for RFQKLYLDRNL [IGFALS_Y248_L244F]
0.793

Provide only the value of recorded SH2 binding enrichment for RSDSSYRMSAT [NHS_Y1532]
0.844

Provide only the value of recorded SH2 binding enrichment for CPFNLYAEQLS [HGD_Y40_YF]
0.892

Provide only the value of recorded SH2 binding enrichment for GIVEDYRPTFF [ACVRL1_Y421_P424T_YF]
0.846

Provide only the value of recorded SH2 binding enrichment for IGEGTYGVLFK [CDK2_Y15_V18L_YF]
0.882

Provide only the value of recorded SH2 binding enrichment for LLVVLYKFRCF [PSEN1_Y154_Y159F_YF]
1.98

Provide only the value of recorded SH2 binding enrichment for ASFGPNTRVQS [FOXL2_Y258_Y258N_YF]
0.8
